Sourced from paper PMC11383987

Target: PIN8 Y150F (Arabidopsis thaliana, UniProt Q9LFP6, Y150F)
Sequence (Q9LFP6 whole entry Y150F): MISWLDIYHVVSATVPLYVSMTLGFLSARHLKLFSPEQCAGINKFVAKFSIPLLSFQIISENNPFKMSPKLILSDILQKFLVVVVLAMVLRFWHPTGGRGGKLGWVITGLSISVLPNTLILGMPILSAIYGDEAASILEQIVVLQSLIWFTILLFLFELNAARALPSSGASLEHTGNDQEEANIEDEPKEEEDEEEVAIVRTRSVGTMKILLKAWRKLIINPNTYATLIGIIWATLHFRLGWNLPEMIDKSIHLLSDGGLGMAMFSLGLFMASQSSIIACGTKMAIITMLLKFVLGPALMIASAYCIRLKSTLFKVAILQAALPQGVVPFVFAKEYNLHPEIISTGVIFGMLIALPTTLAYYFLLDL
Assay: SSM electrophysiology peak current response, PIN8 Y150F proteoliposomes
measurement type: pEC50
One number for each entry, as −log10 of the molar value.

[
  {
    "input smiles": "O=C(O)Cc1c[nH]c2ccccc12",
    "quantitative result": 3.34
  },
  {
    "input smiles": "O=C(O)COc1ccc(Cl)cc1Cl",
    "quantitative result": 3.09
  }
]

Please find the next compound below.
# pEC50 lookup, item O=C(O)COc1ccc(Cl)cc1
3.15

* * *

Biological target: PIN8 S266A (Arabidopsis thaliana, UniProt Q9LFP6, S266A)
Sequence (Q9LFP6 whole entry S266A): as the sequence (Q9LFP6 whole entry Y150F) above, with F150Y, S266A counted along it
Test: SSM electrophysiology peak current response, PIN8 S266A proteoliposomes
Type: biochemical
measurement type: EC50 (µM)
Answers are plain numbers, in µM.

[
  {
    "compound": "O=C(O)Cc1c[nH]c2ccccc12 [IAA, indole-3-acetic acid]",
    "measurement type": "EC50",
    "quantitative result": 578
  }
]

Would you mind listing EC50 for each of the following compounds?
1. O=C(O)COc1ccc(Cl)cc1 [4-CPA, 4-chlorophenoxyacetic acid]
2. O=C(O)COc1ccc(Cl)cc1Cl [2,4-D, 2,4-dichlorophenoxyacetic acid]

1: 2100; 2: 774
